Target: NAD-dependent protein deacetylase sirtuin-2 (Homo sapiens) (UniProt Q8IXJ6)
Sequence (Q8IXJ6 whole entry, the tested form may be a part): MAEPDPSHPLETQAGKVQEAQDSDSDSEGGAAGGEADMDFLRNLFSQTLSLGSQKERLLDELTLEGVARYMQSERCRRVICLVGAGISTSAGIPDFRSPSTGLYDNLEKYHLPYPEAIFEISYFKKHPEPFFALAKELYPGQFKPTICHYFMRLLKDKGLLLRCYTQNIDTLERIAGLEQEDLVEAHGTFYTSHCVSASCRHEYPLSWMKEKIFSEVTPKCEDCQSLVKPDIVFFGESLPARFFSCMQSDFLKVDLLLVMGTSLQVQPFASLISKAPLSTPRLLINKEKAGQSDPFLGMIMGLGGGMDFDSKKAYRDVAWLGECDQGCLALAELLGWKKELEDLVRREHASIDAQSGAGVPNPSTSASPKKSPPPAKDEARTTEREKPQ
Test: Inhibition of human N-terminal His6-SUMO-tagged SIRT2 (38 to 356 residues) expressed in Escherichia coli BL21 at 333 uM using H3K9AcWW as substrate preincubated for 15 mins followed by substrate addition measured after 1 hr by HPLC analysis relative to control
Calls of active or inactive are those of the source. The calls are words filed in the database; no cut-off is given here.
parameter: inhibition

{"columns": ["compound-structure-string", "inhibition"],
 "data": [
  ["O=C(O)CCCNC(=O)CCCSC[C@H](NC(=O)OCc1ccccc1)C(=O)Nc1ccccc1", "inactive"],
  ["CNC(=O)CCCSC[C@H](NC(=O)OCc1ccccc1)C(=O)Nc1ccccc1", "inactive"],
  ["O=C(CCCSC[C@H](NC(=O)OCc1ccccc1)C(=O)Nc1ccccc1)NCc1ccccc1", "47%"],
  ["O=C(O)CNC(=O)CCCSC[C@H](NC(=O)OCc1ccccc1)C(=O)Nc1ccccc1", "inactive"],
  ["CCCCCCCCNC(=O)CCCSC[C@H](NC(=O)OCc1ccccc1)C(=O)Nc1ccccc1", "60%"]
]}

*Q* I'd like to know its inhibition. The compound in question is CCNC(=O)CCCSC[C@H](NC(=O)OCc1ccccc1)C(=O)Nc1ccccc1
*A* 12%

*Q* I'd like to know its inhibition. The compound in question is NC(=O)CCCSC[C@H](NC(=O)OCc1ccccc1)C(=O)Nc1ccccc1
*A* inactive

*Q* I'd like to know its inhibition. The compound in question is O=C(O)CCNC(=O)CCCSC[C@H](NC(=O)OCc1ccccc1)C(=O)Nc1ccccc1
*A* inactive

*Q* I'd like to know its inhibition. The compound in question is CCCCCCNC(=O)CCCSC[C@H](NC(=O)OCc1ccccc1)C(=O)Nc1ccccc1
*A* 25%

---

Molecular target: NAD-dependent protein deacetylase sirtuin-1 (Homo sapiens) (UniProt Q96EB6)
Sequence (whole entry): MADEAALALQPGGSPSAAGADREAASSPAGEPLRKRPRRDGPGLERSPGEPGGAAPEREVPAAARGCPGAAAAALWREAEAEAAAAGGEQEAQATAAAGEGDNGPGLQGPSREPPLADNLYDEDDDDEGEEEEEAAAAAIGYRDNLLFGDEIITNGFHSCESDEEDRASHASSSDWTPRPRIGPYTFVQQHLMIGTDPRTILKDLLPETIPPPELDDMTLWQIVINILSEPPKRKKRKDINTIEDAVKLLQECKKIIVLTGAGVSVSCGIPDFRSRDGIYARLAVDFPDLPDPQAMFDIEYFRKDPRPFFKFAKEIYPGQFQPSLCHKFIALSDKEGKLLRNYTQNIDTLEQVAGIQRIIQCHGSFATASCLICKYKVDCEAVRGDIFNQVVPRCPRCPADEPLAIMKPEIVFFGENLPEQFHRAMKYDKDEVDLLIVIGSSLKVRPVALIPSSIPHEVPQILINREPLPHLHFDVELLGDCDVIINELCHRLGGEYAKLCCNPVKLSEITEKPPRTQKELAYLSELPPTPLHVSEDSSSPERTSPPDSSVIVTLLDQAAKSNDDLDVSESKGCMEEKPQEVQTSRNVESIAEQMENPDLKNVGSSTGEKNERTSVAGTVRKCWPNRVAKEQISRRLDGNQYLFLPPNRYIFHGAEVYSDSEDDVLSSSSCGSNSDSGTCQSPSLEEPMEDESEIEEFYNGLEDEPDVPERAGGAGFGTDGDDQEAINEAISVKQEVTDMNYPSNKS
Assay: Inhibition of human SIRT1 expressed in Escherichia coli BL21 at 250 uM using H3K9AcWW as substrate preincubated for 15 mins followed by substrate addition measured after 1 hr by HPLC analysis relative to control
Residues, ends and D or L forms follow the SMILES beside them. *: point of attachment. X1 = CCCCCCCCCCNC(=O)CCC*; X10 = O=C(O)CCCNC(=O)CCC*; X4 = O=C(O)CCNC(=O)CCC*; X8 = O=C(O)CNC(=O)CCC*; X12 = CCCCNC(=O)CCC*; X9 = CCNC(=O)CCC*
If the reported inhibition equals or exceeds 40%, assign T. If not, assign F.

Reference set, count: 4
{"columns": ["compound", "assigned-class"],
 "data": [
  ["NC(=O)c1cccnc1", "T"],
  ["CCCCCCCCCCNC(=O)CCCSC[C@H](NC(=O)[C@H](CCCNC(=N)N)NC(=O)[C@H](C)NC(=O)[C@@H](NC(=O)[C@H](CCC(N)=O)NC(=O)[C@@H](N)CCCCN)[C@@H](C)O)C(=O)N[C@@H](CO)C(=O)N[C@H](C(=O)NCC(=O)NCC(=O)N[C@@H](CCCCN)C(=O)O)[C@@H](C)O (H-KQTARC(X1)STGGK-OH)", "T"],
  ["C[C@H](NC(=O)[C@@H](NC(=O)[C@H](CCC(N)=O)NC(=O)[C@@H](N)CCCCN)[C@@H](C)O)C(=O)N[C@@H](CCCNC(=N)N)C(=O)N[C@@H](CSCCCC(=O)NCCC(=O)O)C(=O)N[C@@H](CO)C(=O)N[C@H](C(=O)NCC(=O)NCC(=O)N[C@@H](CCCCN)C(=O)O)[C@@H](C)O (H-KQTARC(X4)STGGK-OH)", "T"],
  ["CCCCNC(=O)CCCSC[C@H](NC(=O)[C@H](CCCNC(=N)N)NC(=O)[C@H](C)NC(=O)[C@@H](NC(=O)[C@H](CCC(N)=O)NC(=O)[C@@H](N)CCCCN)[C@@H](C)O)C(=O)N[C@@H](CO)C(=O)N[C@H](C(=O)NCC(=O)NCC(=O)N[C@@H](CCCCN)C(=O)O)[C@@H](C)O (H-KQTARC(X12)STGGK-OH)", "F"]
]}

*Q* // inclusive: inhibition at least 40%? input: C[C@H](NC(=O)[C@@H](NC(=O)[C@H](CCC(N)=O)NC(=O)[C@@H](N)CCCCN)[C@@H](C)O)C(=O)N[C@@H](CCCNC(=N)N)C(=O)N[C@@H](CSCCCC(=O)NCCCC(=O)O)C(=O)N[C@@H](CO)C(=O)N[C@H](C(=O)NCC(=O)NCC(=O)N[C@@H](CCCCN)C(=O)O)[C@@H](C)O (H-KQTARC(X10)STGGK-OH)
*A* F

*Q* // inclusive: inhibition at least 40%? input: CCNC(=O)CCCSC[C@H](NC(=O)[C@H](CCCNC(=N)N)NC(=O)[C@H](C)NC(=O)[C@@H](NC(=O)[C@H](CCC(N)=O)NC(=O)[C@@H](N)CCCCN)[C@@H](C)O)C(=O)N[C@@H](CO)C(=O)N[C@H](C(=O)NCC(=O)NCC(=O)N[C@@H](CCCCN)C(=O)O)[C@@H](C)O (H-KQTARC(X9)STGGK-OH)
*A* F

*Q* // inclusive: inhibition at least 40%? input: C[C@H](NC(=O)[C@@H](NC(=O)[C@H](CCC(N)=O)NC(=O)[C@@H](N)CCCCN)[C@@H](C)O)C(=O)N[C@@H](CCCNC(=N)N)C(=O)N[C@@H](CSCCCC(=O)NCC(=O)O)C(=O)N[C@@H](CO)C(=O)N[C@H](C(=O)NCC(=O)NCC(=O)N[C@@H](CCCCN)C(=O)O)[C@@H](C)O (H-KQTARC(X8)STGGK-OH)
*A* T
